Molecular target: MKNK1 (human) (UniProt Q9BUB5)
Sequence (Q9BUB5 whole entry, looked up): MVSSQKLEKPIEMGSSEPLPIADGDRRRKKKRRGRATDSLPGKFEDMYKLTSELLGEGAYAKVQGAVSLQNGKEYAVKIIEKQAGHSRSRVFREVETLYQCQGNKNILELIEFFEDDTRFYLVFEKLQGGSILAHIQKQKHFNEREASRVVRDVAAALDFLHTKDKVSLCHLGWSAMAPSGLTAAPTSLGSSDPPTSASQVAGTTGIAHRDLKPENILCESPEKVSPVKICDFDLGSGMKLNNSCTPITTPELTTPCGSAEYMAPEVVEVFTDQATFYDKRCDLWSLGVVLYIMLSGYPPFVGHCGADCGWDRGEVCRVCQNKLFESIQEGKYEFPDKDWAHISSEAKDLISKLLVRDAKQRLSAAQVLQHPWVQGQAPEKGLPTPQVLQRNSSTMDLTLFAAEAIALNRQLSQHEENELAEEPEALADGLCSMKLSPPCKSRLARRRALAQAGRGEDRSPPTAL
Assay: KINOMEscan competition binding
Conditions: compound 10.0 µM
# Y = kinase still bound, per cent of control below 80% (exclusive); N = kinase still bound, per cent of control at/above 80%

Enquiry: Determine if `N=C1NC(=O)/C(=C/c2ccc(-c3ccc(C(N)=O)cc3O)o2)S1` shows kinase still bound, per cent of control strictly lower than 80%.
Return: Y

Enquiry: Please determine if `COc1cc(N2CCN(C)CC2)ccc1Nc1ncc2c(n1)N(C)c1sccc1C(=O)N2C` is below 80% in terms of kinase still bound, per cent of control.
Return: Y

Enquiry: Dear reviewer, please state whether `CN1C(=O)c2ccccc2N(C)c2nc(Nc3ccc(N4CCC(O)CC4)cc3)ncc21` has kinase still bound, per cent of control strictly beneath 80%.
Return: Y

Enquiry: I wonder whether `COc1cc(N2CCN(C)CC2)ccc1Nc1ncc2c(n1)Nc1ccccc1NC2=O` has kinase still bound, per cent of control below 80%. Can you tell?
Return: N

Enquiry: Could you please tell me whether kinase still bound, per cent of control recorded for `O=C1NC(=S)S/C1=C\c1ccc(-c2cncc3ccccc23)o1` is less than 80%?
Return: Y

Enquiry: # strict comparison: is reported kinase still bound, per cent of control < 80%? input = `CN1C(=O)c2ccccc2N(C)c2nc(NS(=O)(=O)c3ccc(N)cc3)ncc21`
Return: N

Enquiry: State whether 80% exceeds kinase still bound, per cent of control recorded for `CN1CCN(c2ccc(C(=O)Nc3ncc4c(n3)N(C)c3ccccc3C(=O)N4C)cc2)CC1` .
Return: N

Enquiry: Hello, I'm reviewing records and need to know if kinase still bound, per cent of control of `COc1cc(N2CCC(O)CC2)ccc1Nc1ncc2c(n1)N1CCc3cccc(c31)C(=O)N2C` is below 80%. Could you check?
Return: Y

Enquiry: Hi there! Is kinase still bound, per cent of control for `CS(=O)(=O)Nc1ccc(-c2ncc(/C=C3\SC(=N)NC3=O)s2)cc1` below 80%, do you know?
Return: Y

Enquiry: Here's an entry: `N=C1NC(=O)/C(=C/c2ccc(-c3cncc4ccccc34)o2)S1` . Is its kinase still bound, per cent of control below 80%?
Return: Y

Enquiry: Confirm or reject: kinase still bound, per cent of control of `N=C1NC(=O)/C(=C/c2ccc(-c3ccc(F)cc3O)o2)S1` lies strictly below 80%
Return: Y

Enquiry: Given `CS(=O)(=O)Nc1ccc(-c2cncc(/C=C3\SC(=N)NC3=O)c2)cc1` , is recorded kinase still bound, per cent of control strictly lower than 80%?
Return: Y

Enquiry: kinase still bound, per cent of control under 80%? Item: `COc1cc(N2CCN(C)CC2)ccc1Nc1ncc2c(n1)N(C)c1ccccc1N(C)C2=O`
Return: N
